Target: PXR (Homo sapiens, UniProt O75469)
Construct: expressed in transfected cells; host or cells: HepG2
Sequence (O75469 whole entry): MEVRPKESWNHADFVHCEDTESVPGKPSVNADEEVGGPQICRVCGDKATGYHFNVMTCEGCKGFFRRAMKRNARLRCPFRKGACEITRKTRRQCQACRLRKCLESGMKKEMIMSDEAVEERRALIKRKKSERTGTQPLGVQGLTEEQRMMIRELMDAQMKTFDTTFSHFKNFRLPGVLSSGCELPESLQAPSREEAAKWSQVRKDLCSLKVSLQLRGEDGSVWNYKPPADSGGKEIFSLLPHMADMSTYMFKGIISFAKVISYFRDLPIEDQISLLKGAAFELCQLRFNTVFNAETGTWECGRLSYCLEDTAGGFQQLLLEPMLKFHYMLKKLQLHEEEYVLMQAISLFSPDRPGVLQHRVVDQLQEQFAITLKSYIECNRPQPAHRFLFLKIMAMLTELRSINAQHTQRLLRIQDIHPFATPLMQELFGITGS
Sequence (P19793 whole entry partner): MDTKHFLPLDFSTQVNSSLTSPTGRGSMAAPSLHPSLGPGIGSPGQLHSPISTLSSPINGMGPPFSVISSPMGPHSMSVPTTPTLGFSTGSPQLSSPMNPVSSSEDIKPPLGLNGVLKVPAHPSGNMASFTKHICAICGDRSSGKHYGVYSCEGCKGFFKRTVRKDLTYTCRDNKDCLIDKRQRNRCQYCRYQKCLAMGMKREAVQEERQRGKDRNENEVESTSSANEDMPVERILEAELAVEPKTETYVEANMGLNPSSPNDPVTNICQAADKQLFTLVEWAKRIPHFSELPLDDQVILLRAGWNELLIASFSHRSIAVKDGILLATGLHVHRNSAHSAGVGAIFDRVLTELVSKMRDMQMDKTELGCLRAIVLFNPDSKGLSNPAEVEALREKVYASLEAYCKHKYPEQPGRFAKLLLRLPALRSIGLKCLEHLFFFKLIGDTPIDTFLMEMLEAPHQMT
Assay: PXR luciferase reporter transactivation assay (agonism) on HepG2 cells
Type: cell-based
Settings: compound 10 μM, maximal transactivation compared to Rifaximin 10 μM, mean ± SD, at least three experiments
Reported PXR Agonism Eff (%) values for the following compounds.
API: value field is a number in %; no unit string.

See these solved cases before continuing.
Compound | PXR Agonism Eff (%)
CCN1CCC(c2nc(-c3ccc4ccccc4c3)no2)CC1 | 2
CCCCCCN1CCC(c2nc(-c3ccc4ccccc4c3)no2)CC1 | 23
CCCCCCCN1CCC(c2nc(-c3ccc4ccccc4c3)no2)CC1 | 28
CCC(C)N1CCC(c2nc(-c3ccc4ccccc4c3)no2)CC1 (stereo not drawn) | 3
OCc1cccc(CN2CCC(c3nc(-c4ccc5ccccc5c4)no3)CC2)c1 | 20

Now let's try a different one.
Request body: readout PXR Agonism Eff (%), system PXR (Homo sapiens, UniProt O75469), query `CCCN1CCC(c2nc(-c3ccc4ccccc4c3)no2)CC1` . Return the value.
15

Values from paper PMC10057480
